The origin of these recorded values is patent EP3057951B1.

Kd values by entry
Study system: wild type human RORγt ligand binding domain (RORyt LBD) (Homo sapiens, UniProt P51449)
Construct: His-tag (N); TurboTEV protease cleavage site (ENLYFQG) (N)
Procedure text: RORγt ThermoFluor assay (thermal shift, binding affinity KD)
Experimental readout: Kd (nM)

Compound: COc1nc2ccc(C(O)(c3c(C)noc3C)c3cnnn3C)cc2c(C#N)c1Cc1ccc(C(F)(F)F)cc1 (stereo not drawn) [Example 94]
Study system: wild type human RORγt ligand binding domain (RORyt LBD) (Homo sapiens, UniProt P51449)
Units symbol: nM
Experimental value: 0.48
--
Compound: Cn1cncc1C(O)(c1ccc2nc(C(F)(F)F)c(Cc3ccccc3)c(Cl)c2c1)c1ccccn1 (stereo not drawn) [Example 97]
Study system: wild type human RORγt ligand binding domain (RORyt LBD) (Homo sapiens, UniProt P51449)
Units symbol: nM
Experimental value: 67
--
Compound: Cn1cncc1C(O)(c1ccc(C(F)(F)F)nc1)c1ccc2nc(N3CC(F)C3)c(Cc3ccc(-n4cccn4)cc3)c(Cl)c2c1 (single isomer, unassigned) [Example 147b]
Study system: wild type human RORγt ligand binding domain (RORyt LBD) (Homo sapiens, UniProt P51449)
Units symbol: nM
Experimental value: 60

###

Study system: wild type human RORγt ligand binding domain (RORyt LBD) (Homo sapiens, UniProt P51449)
Construct: His-tag (N); TurboTEV protease cleavage site (ENLYFQG) (N)
Procedure text: RORγt ThermoFluor assay (thermal shift, binding affinity KD)
pKd: −log10 of the molar value.
Please assign a class to every record based on measured pKd, with ranges 0 = under 7, 1 = from 7 up to 9, 2 = 9 and over

Molecule: CCc1nc2ccc(C(O)(c3cnc(C)n3C)C3CCOCC3)cc2c(Cl)c1Cc1ccc(C(F)(F)F)cc1 (single isomer, unassigned) [Example 34b]
Class: 2
--
Molecule: COc1nc2ccc(C(O)(c3ccc(C)nc3C)c3cnnn3C)cc2c(C#N)c1Cc1ccc(C(F)(F)F)nc1 (stereo not shown) [Example 41a]
Class: 1
--
Molecule: COc1nc2ccc(C(O)(c3cnc(C)n3C)c3cnc(C)n3C)cc2c(Cl)c1Cc1ccc(OC(F)(F)F)cc1 [Example 76]
Class: 2
--
Molecule: COc1c(Cc2ccccc2)c(C(F)(F)F)nc2ccc(C(O)(c3ccccn3)c3cncn3C)cc12 (racemic) [Example 98a]
Class: 0
--
Molecule: Cn1cncc1C(O)(c1ccc2nc(C(F)(F)F)c(Cc3ccccc3)c(C#N)c2c1)c1ccccn1 (racemic) [Example 99a]
Class: 1
--
Molecule: Cn1cncc1C(O)(c1ccc(C(F)(F)F)nc1)c1ccc2nc(N3CC(O)C3)c(Cc3ccc(-n4cccn4)cc3)c(Cl)c2c1 (single isomer, unassigned) [Example 134b]
Class: 0
--
Molecule: CC(=O)N1CCC(C(O)(c2ccc(F)cc2)c2ccc3nc(OC(F)F)c(Cc4cncnc4)c(OC(F)F)c3c2)CC1 (stereo not shown) [Example 72]
Class: 0
--
Molecule: CCc1nc2ccc(C(O)(c3cnnn3C)C3CCOCC3)cc2c(Cl)c1Cc1ccc(C(F)(F)F)cc1 (single isomer, unassigned) [Example 33b]
Class: 2
--
Molecule: Cc1ccc(C(O)(c2ccc3nc(N4CCC4)c(Cc4ccc(-n5cccn5)cc4)c(Cl)c3c2)c2cnnn2C)c(C)n1 (single isomer, unassigned) [Example 141c]
Class: 0
--
Molecule: COc1nc2ccc(C(O)(c3ccc(F)cc3)c3cncn3C)cc2c(Cl)c1Cc1ccc(-n2cccn2)cc1 (single isomer, unassigned) [Example 160b]
Class: 0

###

Collected inhibition at 6 µM values appear next to each entry.
Study system: wild type human RORγt LBD (Homo sapiens, UniProt P51449)
Construct: expressed in transfected cells; host or cells: HEK293T
Sequence (P51449 258-518): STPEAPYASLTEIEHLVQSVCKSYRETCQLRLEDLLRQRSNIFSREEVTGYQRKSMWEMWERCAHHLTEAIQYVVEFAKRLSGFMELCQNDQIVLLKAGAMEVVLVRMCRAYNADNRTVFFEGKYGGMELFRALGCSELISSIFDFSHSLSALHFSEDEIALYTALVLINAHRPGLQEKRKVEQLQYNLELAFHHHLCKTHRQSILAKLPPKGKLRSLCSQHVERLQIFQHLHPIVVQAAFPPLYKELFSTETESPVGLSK
Procedure text: RORγt (LBD) Reporter Assay (GAL4-luciferase, HEK293T cells)
Type: cell-based
Experimental conditions: HEK-293T, read-out: RORγt (LBD) Reporter Assay, % inhibition @ 6 µM, 6 µM compound concentration; HEK293T cells

Compound: Cc1ccc(C(O)(c2ccc3nc(NC4CC4)c(Cc4ccc(C(F)(F)F)cc4)c(Cl)c3c2)c2cnnn2C)c(C)n1 (stereo not drawn) [Example 143a]
inhibition at 6 µM (%): 101
//
Compound: COc1nc2ccc(C(O)(c3oc(C)nc3C)c3cnnn3C)cc2c(Cl)c1Cc1ccc(C(F)(F)F)cc1 (single isomer, unassigned) [Example 156b]
inhibition at 6 µM (%): 98
//
Compound: COc1nc2ccc(C(O)(c3ccc(C)nc3C)c3cnnn3C)cc2c(Cl)c1Cc1ccc(S(C)(=O)=O)cc1 (single isomer, unassigned) [Example 117b]
inhibition at 6 µM (%): 88
//
Compound: COC1CN(c2nc3ccc(C(O)(c4ccc(C(F)(F)F)nc4)c4cncn4C)cc3c(Cl)c2Cc2ccc(-n3cccn3)cc2)C1 (single isomer, unassigned) [Example 133b]
inhibition at 6 µM (%): 99
//
Compound: COc1nc2ccc(C(O)(c3ccc(F)cc3)c3cccnc3)cc2c(Cl)c1Cc1ccc(-n2cccn2)cc1 (stereo not drawn) [Example 158a]
inhibition at 6 µM (%): 97
//
Compound: Cn1cncc1C(O)(c1ccc(C(F)(F)F)nc1)c1ccc2nc(-c3nccn3C)c(Cc3ccccc3)c(Cl)c2c1 (single isomer, unassigned) [Example 113b]
inhibition at 6 µM (%): 58

###

Study system: wild type human RORγt LBD (Homo sapiens, UniProt P51449)
Construct: expressed in transfected cells; host or cells: HEK293T
Sequence (P51449 258-518): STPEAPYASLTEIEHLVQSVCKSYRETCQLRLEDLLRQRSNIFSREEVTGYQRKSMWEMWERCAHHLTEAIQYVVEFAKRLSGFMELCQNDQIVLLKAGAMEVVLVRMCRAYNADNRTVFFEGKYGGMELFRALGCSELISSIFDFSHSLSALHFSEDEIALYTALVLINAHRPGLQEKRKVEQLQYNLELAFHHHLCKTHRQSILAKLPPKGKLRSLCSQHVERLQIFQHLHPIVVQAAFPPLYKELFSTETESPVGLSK
Procedure text: RORγt (LBD) Reporter Assay (GAL4-luciferase, HEK293T cells)
Assay type: cell-based
Experimental conditions: HEK293T cells; value after the comma with ∼, > or < could not be included in the average
pIC50: −log10 of the molar value.

Molecule: CCc1nc2ccc(C(O)(c3ccc(C)nc3C)c3cnnn3C)cc2c(Cl)c1Cc1ccc(C(F)(F)F)cc1 (single isomer, unassigned) [Example 23b]
pIC50: 6.70
--
Molecule: COc1nc2ccc(C(O)(c3cc(C)nc(C)c3)c3cnnn3C)cc2c(Cl)c1Cc1ccc(C(F)(F)F)cc1 (single isomer, unassigned) [Example 84b]
pIC50: 6.68
--
Molecule: COc1c(Cc2ccccc2)c(C(F)(F)F)nc2ccc(C(O)(c3ccccn3)c3cncn3C)cc12 (single isomer, unassigned) [Example 98c]
pIC50: 6.38
--
Molecule: COc1nc2ccc(C(O)(c3ccc(C)nc3C)c3cncn3C)cc2c(Cl)c1Cc1ccc(C(F)(F)F)cc1 (single isomer, unassigned) [Example 88c]
pIC50: 8.00
--
Molecule: COc1nc2ccc(C(O)(c3cnnn3C)c3cnc(C)n3C)cc2c(C#N)c1Cc1ccc(F)cc1 (single isomer, unassigned) [Example 66b]
pIC50: 8.51
--
Molecule: Cn1cncc1C(O)(c1ccc(C#N)cc1)c1ccc2nc(C(F)(F)F)c(Cc3ccccc3)c(C#N)c2c1 (stereo not shown) [Example 104]
pIC50: 7.72
--
Molecule: COc1nc2ccc(C(O)(c3ccccc3)C3CCN(C(C)=O)CC3)cc2c(Cl)c1Cc1ccc(-n2ccnc2)cc1 (stereo not shown) [Example 16a]
pIC50: 8.01
--
Molecule: COc1nc2ccc(C(O)(c3ccc(F)cc3)C3CCN(C(C)=O)CC3)cc2c(Cl)c1Cc1ccc(F)cc1 (single isomer, unassigned) [Example 51b]
pIC50: 6.77
--
Molecule: COc1nc2ccc(C(N)(c3ccc(C(F)(F)F)nc3)c3cncn3C)cc2c(Cl)c1Cc1cc2ccccc2s1 (single isomer, unassigned) [Example 71b]
pIC50: 6.64
--
Molecule: Cn1cncc1C(O)(c1ccc(Cl)cc1)c1ccc2nc(C(F)(F)F)c(Cc3ccccc3)c(O)c2c1 (stereo not shown) [Example 102]
pIC50: 5.72
--
Molecule: COc1nc2ccc(C(O)(c3cncn3C)C3CCOCC3)cc2c(Cl)c1Cc1ccc(-n2cccn2)cc1 (single isomer, unassigned) [Example 1b]
pIC50: 7.00
--
Molecule: Cc1ccc(C(O)(c2ccc3nc(C)c(Cc4ccc(C(F)(F)F)cc4)c(Cl)c3c2)c2cnnn2C)c(C)n1 (stereo not shown) [Example 28a]
pIC50: 7.96
--
Molecule: Cn1cncc1C(O)(c1ccc2nc(C(F)(F)F)c(Cc3ccccc3)c(C#N)c2c1)c1ccccn1 (single isomer, unassigned) [Example 99c]
pIC50: 7.70
--
Molecule: COc1nc2ccc(C(O)(c3cnnn3C)c3cnc(C)n3C)cc2c(Cl)c1Cc1ccc(C(F)(F)F)nc1 (stereo not shown) [Example 43a]
pIC50: 8.10
--
Molecule: COc1nc2ccc(C(O)(c3cnnn3C)c3cnc(C)n3C)cc2c(Cl)c1Cc1ccc(C(F)(F)F)nc1 (single isomer, unassigned) [Example 43c]
pIC50: 8.28
--
Molecule: COc1nc2ccc(C(O)(c3ccc(C#N)cc3)c3cncn3C)cc2c(C#N)c1Cc1ccc(-n2cncn2)cc1 (single isomer, unassigned) [Example 15b]
pIC50: 6.39
--
Molecule: COc1nc2ccc(C(O)(c3cnnn3C)c3cnc(C)n3C)cc2c(Cl)c1Cc1ccc(F)cc1 (racemic) [Example 65a]
pIC50: 8.00
--
Molecule: COc1nc2ccc(C(O)(c3cncn3C)c3cnnn3C)cc2c(Cl)c1Cc1ccc(C(F)(F)F)cc1 (racemic) [Example 89a]
pIC50: 8.32
--
Molecule: COc1nc2ccc(C(O)(c3ccc(Cl)cc3)c3cncn3C)cc2c(C#N)c1Cc1ccc(C(F)(F)F)cc1 (single isomer, unassigned) [Example 55c]
pIC50: 7.03
--
Molecule: Cn1cncc1C(O)(c1ccc(C(F)(F)F)nc1)c1ccc2nc(C(F)(F)F)c(Cc3ccccc3)c(C#N)c2c1 (stereo not shown) [Example 108a]
pIC50: 7.52
--
Molecule: COc1ccc(C(O)(c2cccnc2)c2ccc3nc(OC)c(Cc4ccc(-n5cccn5)cc4)c(Cl)c3c2)cc1 (stereo not shown) [Example 63]
pIC50: 6.85
--
Molecule: COc1nc2ccc(C(O)(c3ccc(C)nc3C)c3cncn3C)cc2c(Cl)c1Cc1ccc(C(F)(F)F)cc1 (single isomer, unassigned) [Example 88b]
pIC50: 6.13
--
Molecule: COc1nc2ccc(C(O)(c3ccccc3)C3CCN(C(C)=O)CC3)cc2c(Cl)c1Cc1ccc(-n2ccnc2)cc1 (stereo not shown) [Example 16b]
pIC50: 7.04
--
Molecule: CC(=O)N1CCC(C(O)(c2ccccc2)c2ccc3nc(C)c(Cc4ccc(C(F)(F)F)cc4)c(Cl)c3c2)CC1 (stereo not shown) [Example 27a]
pIC50: 8.36
